Molecular target: mu opiate receptor (MOR) (Rattus norvegicus)
Construct: from tissue; host or cells: striatal tissue (membrane preparation)
Sequence (P33535 whole entry): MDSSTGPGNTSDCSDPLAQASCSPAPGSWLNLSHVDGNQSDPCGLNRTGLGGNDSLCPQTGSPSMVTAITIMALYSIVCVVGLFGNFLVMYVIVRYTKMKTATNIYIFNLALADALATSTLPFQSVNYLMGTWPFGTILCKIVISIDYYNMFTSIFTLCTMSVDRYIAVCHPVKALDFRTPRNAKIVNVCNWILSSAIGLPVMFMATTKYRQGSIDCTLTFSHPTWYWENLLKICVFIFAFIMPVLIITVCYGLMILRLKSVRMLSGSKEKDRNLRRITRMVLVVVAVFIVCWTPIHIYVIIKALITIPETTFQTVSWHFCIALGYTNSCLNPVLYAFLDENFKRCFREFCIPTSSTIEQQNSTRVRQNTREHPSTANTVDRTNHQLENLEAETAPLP
Assay: [35S]GTPγS binding assay using striatal membranes (MOR agonist activity)
Assay type: biochemical
Set-up: reference not given here
Conditions: 1 μM compound, striatal membranes
valueType: MOR agonist activity, [35S]GTPγS binding to Gαo, 1 μM (%)
Give the quantity in %, number only.

Here's what some known entries look like.
compound="COc1ccccc1C(=O)CC1c2c(cc3c(c2OC)OCO3)CC[N+]1(C)C (stereo not shown)" val=234.6
compound="COc1ccccc1CCC(=O)CC1c2c(cc3c(c2OC)OCO3)CC[N+]1(C)C (stereo not shown)" val=193.1
compound="COc1c2c(cc3c1C(CC(=O)Cc1ccc(C#N)cc1)[N+](C)(C)CC3)OCO2 (stereo not shown)" val=212.0

# ---- query compound ----
What does the record list as MOR agonist activity, [35S]GTPγS binding to Gαo, 1 μM for COc1cc(C(=O)CC2c3c(cc4c(c3OC)OCO4)CC[N+]2(C)C)cc(OC)c1OC (stereo not shown) ?
186.0
